Every entry's value here was drawn from ChEMBL document CHEMBL5104092.

Protocol summary: Dissociation constant, pKa of compound
Type: physicochemical
Listing: pKa of selected compounds
Please reply with the number alone, leaving off any unit.

// known answers, use as guide
COc1ccc(NC(=O)N2CCCCN3[C@H](CN(C)C)[C@H](c4ccc(C#Cc5ccccc5)cc4)[C@@H]3C2)cc1; 5
C=C(c1ccc(OC(C)(C)COC(=O)CCC(=O)O)cc1)C1COC2(OO1)C1CC3CC(C1)CC2C3 (stereo not drawn); 4
CC1(C)c2nc(-c3ccc(F)cc3)c(Nc3ccc(F)cc3)n2CCN1C(=O)CN [GANAPLACIDE]; 7.3
C[C@H]1Cc2c([nH]c3cc(Cl)c(F)cc23)[C@@]2(N1)C(=O)Nc1ccc(Cl)cc12 [CIPARGAMIN]; 4.6
CC(=O)N1CCN(c2ccc(CN(C(=O)/C=C/c3ccc(C(F)(F)F)cc3)[C@@H](Cc3ccccc3)C(=O)N3CCN(Cc4ccc(N(C)CCO)cc4)CC3)cc2)CC1; 7.5

Form field: reported pKa of `CC(C)(C)c1cc(O)c(CN)c(C(C)(C)C)c1` 7.2

Which value of pKa has been reported for `O=C(c1ccc(OC[C@H](O)Cn2ncnn2)cc1)N1CC[C@H](c2ccc(F)cc2)C1` in the records? 12.6

What value of pKa has been reported for the following compound? `Nc1ncc(-c2ccc(C(=O)N3CCNCC3)cc2)nc1-c1ccc(C(F)(F)F)cc1` 8.1

Endpoint output: pKa of FC1CCN(CCOc2ccc(C3CCC4(CC3)OOC3(OO4)C4CC5CC(C4)CC3C5)cc2)CC1 (stereo not drawn) . Value? 8.4
